# run description: Bulk density determination (50 mL measuring cylinder, free-fall impact until compacted)
# Assay type: physicochemical
# applied conditions: sample compacted in 50 mL measuring cylinder, free-fall impact at 5 cm height
# Protocol: Determination method of bulk density: A sample of an example is added to a 50 mL measuring cylinder and continuously subjected to free-fall impact at a height of 5 cm until the sample is compacted, and then a mass of the sample is measured to obtain bulk density data.
assay readout: Bulk density (g/mL)

1) OC[C@H]1O[C@H](O[C@]2(CCl)O[C@H](CCl)[C@@H](O)[C@@H]2O)[C@H](O)[C@@H](O)[C@H]1Cl [Example 5, sucralose]	1.103
2) OC[C@H]1O[C@H](O[C@]2(CCl)O[C@H](CCl)[C@@H](O)[C@@H]2O)[C@H](O)[C@@H](O)[C@H]1Cl [Example 2, sucralose]	1.056
3) OC[C@H]1O[C@H](O[C@]2(CCl)O[C@H](CCl)[C@@H](O)[C@@H]2O)[C@H](O)[C@@H](O)[C@H]1Cl [Comparative Example 1, sucralose]	0.981

---

# run description: Accelerated stability test (ICH guideline), purity of the stored sucralose product by HPLC
# Assay type: physicochemical
# applied conditions: storage twenty-four months; 40° C. ± 2° C., 60% RH ± 5% RH
assay readout: Purity after storage, Twenty-four months (%)

1. OC[C@H]1O[C@H](O[C@]2(CCl)O[C@H](CCl)[C@@H](O)[C@@H]2O)[C@H](O)[C@@H](O)[C@H]1Cl [Example 3, sucralose]	98.87
2. OC[C@H]1O[C@H](O[C@]2(CCl)O[C@H](CCl)[C@@H](O)[C@@H]2O)[C@H](O)[C@@H](O)[C@H]1Cl [Comparative Example 2, sucralose]	99.20
3. OC[C@H]1O[C@H](O[C@]2(CCl)O[C@H](CCl)[C@@H](O)[C@@H]2O)[C@H](O)[C@@H](O)[C@H]1Cl [Example 1, sucralose]	99.56
4. OC[C@H]1O[C@H](O[C@]2(CCl)O[C@H](CCl)[C@@H](O)[C@@H]2O)[C@H](O)[C@@H](O)[C@H]1Cl [Comparative Example 3, sucralose]	99.04
5. OC[C@H]1O[C@H](O[C@]2(CCl)O[C@H](CCl)[C@@H](O)[C@@H]2O)[C@H](O)[C@@H](O)[C@H]1Cl [Example 4, sucralose]	99.69
6. OC[C@H]1O[C@H](O[C@]2(CCl)O[C@H](CCl)[C@@H](O)[C@@H]2O)[C@H](O)[C@@H](O)[C@H]1Cl [Comparative Example 1, sucralose]	99.12
7. OC[C@H]1O[C@H](O[C@]2(CCl)O[C@H](CCl)[C@@H](O)[C@@H]2O)[C@H](O)[C@@H](O)[C@H]1Cl [Example 2, sucralose]	98.98
8. OC[C@H]1O[C@H](O[C@]2(CCl)O[C@H](CCl)[C@@H](O)[C@@H]2O)[C@H](O)[C@@H](O)[C@H]1Cl [Example 5, sucralose]	99.35
9. OC[C@H]1O[C@H](O[C@]2(CCl)O[C@H](CCl)[C@@H](O)[C@@H]2O)[C@H](O)[C@@H](O)[C@H]1Cl [Example 6, sucralose]	99.23
10. OC[C@H]1O[C@H](O[C@]2(CCl)O[C@H](CCl)[C@@H](O)[C@@H]2O)[C@H](O)[C@@H](O)[C@H]1Cl [Raw material, sucralose]	98.42
